# experimental.system: SyGlnB (PII) in complex with SyBCCP (Synechocystis sp. PCC 6803, UniProt Q55247)
# Sequence (Q55247 whole entry): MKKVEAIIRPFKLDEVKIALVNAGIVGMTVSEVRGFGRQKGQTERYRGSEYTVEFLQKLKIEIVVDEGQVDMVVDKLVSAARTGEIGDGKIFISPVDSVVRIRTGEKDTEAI
# Sequence (Q55120 1-154 partner): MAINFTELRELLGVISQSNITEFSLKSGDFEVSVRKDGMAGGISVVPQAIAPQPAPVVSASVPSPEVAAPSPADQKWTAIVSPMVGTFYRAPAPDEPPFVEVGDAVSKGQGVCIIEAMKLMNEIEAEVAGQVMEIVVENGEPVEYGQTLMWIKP
# test: biochemical
metric: EC50
# output: numeric value plus its unit

Complete the entry with EC50 for Nc1ncnc2c1ncn2[C@@H]1O[C@H](COP(=O)(O)OP(=O)(O)OP(=O)(O)O)[C@@H](O)[C@H]1O
68 µM

* * *

# experimental.system: SyGlnB (PII) in complex with SyBCCP (Synechocystis sp. PCC 6803, UniProt Q55247, S49C)
# test: biochemical
metric: EC50 (µM)
Form entry: value (µM) — number only.

Write down EC50 measured for item Nc1ncnc2c1ncn2[C@@H]1O[C@H](COP(=O)(O)OP(=O)(O)OP(=O)(O)O)[C@@H](O)[C@H]1O
143

Hello, the source for this data is paper PMC5080355, in case you need it.
